Consider the following binders and their measured Max OD450 readings.
# target entity: T1, his-tagged human CDH6 extracellular region protein (hCDH6 ECD-his) (human, UniProt P55285 19-615)
# T1 construct: also called Human CDH6-his; hCDH6-his; not shown: his tag
# T1 sequence: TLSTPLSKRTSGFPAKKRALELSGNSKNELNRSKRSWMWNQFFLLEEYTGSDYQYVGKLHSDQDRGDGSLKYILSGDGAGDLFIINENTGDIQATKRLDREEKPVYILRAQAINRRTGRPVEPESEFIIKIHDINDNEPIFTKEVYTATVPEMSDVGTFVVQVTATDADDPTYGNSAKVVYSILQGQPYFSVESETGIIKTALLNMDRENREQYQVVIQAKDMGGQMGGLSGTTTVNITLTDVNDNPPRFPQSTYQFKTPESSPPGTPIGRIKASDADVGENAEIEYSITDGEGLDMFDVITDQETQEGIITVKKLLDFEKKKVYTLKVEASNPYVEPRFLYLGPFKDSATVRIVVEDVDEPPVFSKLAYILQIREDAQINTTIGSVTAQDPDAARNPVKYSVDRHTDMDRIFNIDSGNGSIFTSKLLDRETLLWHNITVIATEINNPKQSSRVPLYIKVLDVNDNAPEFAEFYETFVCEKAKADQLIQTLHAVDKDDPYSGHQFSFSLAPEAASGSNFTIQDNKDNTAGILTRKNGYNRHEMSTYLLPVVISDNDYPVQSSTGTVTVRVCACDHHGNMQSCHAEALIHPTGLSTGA
# assay protocol: ELISA, coated antigen
Kindly answer with a numeric value in OD450, unit omitted.

- binder: "hCDH6-6-H1L4 (antibody, V domains shown, Humanized; also called hCDH6-6-HIL4) VH: EVQLVQSGAEVKKPGASVKVSCKASGYTFTDYYMAWVRQAPGQGLEWMGYIFPNSGGTDYSQKFKGRVTMTVDKSTSTVYMELSSLRSEDTAVYYCARELGADYGDYYAMDHWGQGTTVTVSS VL: DIQMTQSPSSLSASVGDRVTITCRASENIDSYLAWYQQKPGKSPKLLVYSATLLADGVPSRFSGSGSGTDYTLTISSLQPEDFARYYCQHYYRTPPTFGQGTKLEIK"
  Max OD450 (OD450): 2.16
- binder: "hCDH6-6-H3L3 (antibody, V domains shown, Humanized) VH: EVQLVQSGAEVKKPGASVKVSCKASGYTFTDYYMAWVRQAPRQGLEWMGYIFPNSGGTDYSQKFKGRVTMTVDKSTSTVYMELSSLRSEDTAVYYCARELGADYGDYYAMDHWGQGTTVTVSS VL: DIQMTQSPSSLSASVGDRVTITCRASENIDSYLAWYQQKPGKSPQLLVYSATLLADGVPSRFSGSGSGTDYTLTISSLQPEDFATYYCQHYYRTPPTFGQGTKLEIK"
  Max OD450 (OD450): 2

Quickly give me recorded Max OD450 for hCDH6-6-H3L2 (antibody, V domains shown, Humanized) VH: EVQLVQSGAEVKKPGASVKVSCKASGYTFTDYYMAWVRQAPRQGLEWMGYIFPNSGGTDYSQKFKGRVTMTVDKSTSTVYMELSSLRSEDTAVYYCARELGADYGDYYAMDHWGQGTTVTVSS VL: DIQMTQSPSSLSASVGDRVTITCRASENIDSYLAWYQQKPGKSPKLLVYSATLLADGVPSRFSGSGSGTDYTLTISSLQPEDFATYYCQHYYRTPPTFGQGTKLEIK 2.09
